System: PC-3 prostate
Test: NCI tumour cell line growth inhibition, 48 h
QUANTITY MEASURED: TGI (µM)
Respond with the bare value in µM.

# input Return reported TGI. Input compound: COc1ccc2c(c1)CN1C(=N2)CSC1c1ccccc1Cl (stereo unspecified)
# output 70.5

# input Return reported TGI. Input compound: `Nc1c(C(=O)c2ccc(Cl)cc2)[nH]c(NCc2ccccc2)c1C(=S)Nc1ccccc1`
# output 18.4

# input Return reported TGI. Input compound: `CC(C)c1nc(CN(C)C(=O)N[C@H](C(=O)N[C@@H](Cc2ccccc2)C[C@H](O)[C@H](Cc2ccccc2)NC(=O)OCc2cncs2)C(C)C)cs1`
# output 79.2

# input Return reported TGI. Input compound: `COC(=O)[C@]12CC[C@@H](C)[C@H](C)[C@@H]1C1=CC[C@@H]3[C@@]4(C)C/C(=N\O)[C@H](O)[C@@]5(C)COC(=C45)C[C@@]3(C)[C@]1(C)CC2`
# output 6.51

# input Return reported TGI. Input compound: FC(F)(F)c1ccc2nc3n(c2c1)C(c1c(Cl)cccc1Cl)SC3 (stereo unspecified)
# output 31.5

# input Return reported TGI. Input compound: `COc1ccc2c(c1)CC1=C(O2)c2ccc(OC)cc2OC1`
# output 57

# input Return reported TGI. Input compound: `N#CSc1c[nH]c2cccc(/C=C/C(=O)/C=C(/C=C/c3cccc4[nH]cc(SC#N)c34)OB(F)F)c12`
# output 4.19

# input Return reported TGI. Input compound: `CC(C)(C)c1cc(/C=C(\C#N)C(=O)NCCO)cc(C(C)(C)C)c1O`
# output 46.7

# input Return reported TGI. Input compound: `CCOc1cc(-c2nc3ccccn3c2/N=C/c2cc(Br)ccc2O)ccc1O`
# output 73.3
